- Target system: T1, human transferrin receptor (recombinant, for surface plasmon resonance) (human, UniProt P02786 89-760)
- T1 construct: also called huTfR; human transferrin receptor-biotinylated
- T1 sequence (P02786 89-760 limits assumed): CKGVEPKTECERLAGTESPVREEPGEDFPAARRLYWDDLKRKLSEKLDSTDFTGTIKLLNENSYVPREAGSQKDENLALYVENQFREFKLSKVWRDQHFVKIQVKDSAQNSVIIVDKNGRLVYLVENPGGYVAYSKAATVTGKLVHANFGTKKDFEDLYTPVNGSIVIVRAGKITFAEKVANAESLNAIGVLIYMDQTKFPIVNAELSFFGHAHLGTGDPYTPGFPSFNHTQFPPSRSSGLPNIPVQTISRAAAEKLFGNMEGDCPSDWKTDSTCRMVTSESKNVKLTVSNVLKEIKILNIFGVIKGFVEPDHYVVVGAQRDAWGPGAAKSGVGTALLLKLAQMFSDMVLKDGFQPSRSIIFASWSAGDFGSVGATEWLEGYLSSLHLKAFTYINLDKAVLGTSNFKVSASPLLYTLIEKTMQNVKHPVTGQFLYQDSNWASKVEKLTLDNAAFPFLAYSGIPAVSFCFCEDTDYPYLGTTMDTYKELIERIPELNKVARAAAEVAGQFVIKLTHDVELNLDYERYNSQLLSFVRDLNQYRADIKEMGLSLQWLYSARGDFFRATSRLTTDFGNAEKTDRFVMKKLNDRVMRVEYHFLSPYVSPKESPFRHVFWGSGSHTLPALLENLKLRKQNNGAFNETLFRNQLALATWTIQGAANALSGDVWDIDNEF
- Measurement protocol: SPR 25C
Assay readout: koff (s⁻¹)
Report the value in s⁻¹ with no unit label.

Binder	Assay result
2/99 VH20/VL15 (antibody, V domains shown) VH: QSMQESGPGLVKPSQTLSLTCTVSGFSLSSYAMSWIRQHPGKGLEWIGYIWSGGSTDYAPSLKSRVTISVDTSKNQVSLKLSSVTAADTAVYYCARRYGTSYPDYGDANGFDPWGQGTLVTVSS VL: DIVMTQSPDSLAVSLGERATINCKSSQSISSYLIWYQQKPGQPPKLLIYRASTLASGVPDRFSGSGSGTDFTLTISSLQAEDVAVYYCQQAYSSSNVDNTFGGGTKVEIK	0.00785

Field: next binder
Can you share its koff? I mean this binder: 2/99 VH21/VL15 (antibody, V domains shown) VH: QSMQESGPGLVKPSQTLSLTCTVSGFSLSSYAMSWIRQHPGKGLEWIGYIWSGGSTDYASWAKSRVTISVDTSKNQVSLKLSSVTAADTAVYYCARRYGTSYPDYGDANGFDPWGQGTLVTVSS VL: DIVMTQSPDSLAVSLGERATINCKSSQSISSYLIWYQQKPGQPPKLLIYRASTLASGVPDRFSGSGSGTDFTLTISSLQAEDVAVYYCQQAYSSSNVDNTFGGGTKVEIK
0.00192
